- System: DU-145
- assayInfo: Cytotoxicity against human DU145 cells after 48 hrs by SRB assay
- Format: functional, cell-based
- setupConditions: Homo sapiens, DU-145, 48 h; read-out: LC50 (the source's name)
Criterion: CC50 strictly less than 900 nM. Met: class 1. Not met: class 0.

{"columns": ["givenSmiles", "assignedLabel"],
 "data": [
  ["C/C=C1\\NC(=O)[C@H](Cc2ccc(I)cc2)NC(=O)[C@@H](C(C)C)NC(=O)[C@@H]([C@H](C)CC)NC(=O)[C@H](NC(=O)[C@H](NC(=O)[C@H](CCCN)NC(=O)[C@H]2CCCN2C(=O)[C@H](NC(=O)[C@@H](NC(=O)[C@@H](NC(=O)[C@H](NC(=O)CC[C@@H](C)CC)C(C)C)[C@@H](C)O)C(C)C)C(C)C)[C@H](C)CC)[C@H](C)OC(=O)[C@H](C(C)C)NC1=O", "class 1"],
  ["C/C=C1\\NC(=O)[C@H](Cc2ccccc2)NC(=O)[C@@H](C(C)C)NC(=O)[C@@H]([C@H](C)CC)NC(=O)[C@H](NC(=O)[C@H](NC(=O)[C@H](CCCNC(=O)C[C@](OC)(c2ccccc2)C(F)(F)F)NC(=O)[C@H]2CCCN2C(=O)[C@H](NC(=O)[C@@H](NC(=O)[C@@H](NC(=O)[C@H](NC(=O)CCCC(C)C)C(C)C)[C@@H](C)O)C(C)C)C(C)C)[C@H](C)CC)[C@H](C)OC(=O)[C@H](C(C)C)NC1=O", "class 1"]
]}

Please check: CC50 for C/C=C1\NC(=O)[C@H](Cc2ccccc2)NC(=O)[C@@H](C(C)C)NC(=O)[C@@H]([C@H](C)CC)NC(=O)[C@H](NC(=O)[C@H](NC(=O)[C@H](CCCN)NC(=O)[C@H]2CCCN2C(=O)[C@H](NC(=O)[C@@H](NC(=O)[C@@H](NC(=O)[C@H](NC(=O)CCCCC(C)(F)F)C(C)C)[C@@H](C)O)C(C)C)C(C)C)[C@H](C)CC)[C@H](C)OC(=O)[C@H](C(C)C)NC1=O , strictly under 900 nM or not? class 0

Attribution: ChEMBL document CHEMBL1156597
